Where these numbers come from: ChEMBL document CHEMBL2177036

assay: Ratio of drug uptake in brain to plasma in rat at 10 mg/kg, po at 6 hrs; type: ADME, organism-based; set-up: dose 10 mg/kg, route oral; settings: read-out: BPR
measured_metric: Kp at 6 h

>>> df
                      smiles_representation  measured_metric  measured_value
0  CN1C(=N)N[C@@]2(c3cc(-c4cccc(C#N)c4)cs3)CN(c3ncc(Cl)cn3)C[C@H]2C1=O        Kp at 6 h             0.1

I = CN1C(=O)[C@@H]2CN(c3ncccn3)C[C@]2(c2cc(-c3cccc(C#N)c3)cs2)N=C1N
II = CN1C(=N)N[C@@]2(c3cc(-c4cccc(C#N)c4)cs3)CN(c3ncc(F)cn3)C[C@H]2C1=O
// which entry has the larger Kp at 6 h value, I or II ? Give the chosen item's label as your response.
I
